Could you please report measured fold induction at 50 µM for the items listed next?
System: A. baumannii strain 98-37-09
Experiment: AK assay 384-well format, Prestwick library screening
Assay type: cell-based, Acinetobacter baumannii
Condition parameters: Acinetobacter baumannii, 983709, 3 h; 50 μM final drug concentration; planktonic; cutoff for positive-scoring molecules 3-fold increase; read-out: AK-based Prestwick Library Screening Results, A. baumannii (fold increase in extracellular AK activity)

{"columns": ["Compound", "fold induction at 50 µM"],
 "data": [
  ["CCCCOC(=O)c1ccc(N)cc1", 0.7],
  ["COc1c(O)cc2c(c1O)[C@@H]1O[C@H](CO)[C@@H](O)[C@H](O)[C@H]1OC2=O [Bergenin monohydrate]", 0.9]
]}

Measured fold induction at 50 µM of C/C(=C(\CCOP(=O)(O)O)SC(=O)c1ccccc1)N(C=O)Cc1cnc(C)nc1N : 0.7
